- subject of test: wild type PKR (Homo sapiens, UniProt P30613)
- Sequence (P30613 whole entry): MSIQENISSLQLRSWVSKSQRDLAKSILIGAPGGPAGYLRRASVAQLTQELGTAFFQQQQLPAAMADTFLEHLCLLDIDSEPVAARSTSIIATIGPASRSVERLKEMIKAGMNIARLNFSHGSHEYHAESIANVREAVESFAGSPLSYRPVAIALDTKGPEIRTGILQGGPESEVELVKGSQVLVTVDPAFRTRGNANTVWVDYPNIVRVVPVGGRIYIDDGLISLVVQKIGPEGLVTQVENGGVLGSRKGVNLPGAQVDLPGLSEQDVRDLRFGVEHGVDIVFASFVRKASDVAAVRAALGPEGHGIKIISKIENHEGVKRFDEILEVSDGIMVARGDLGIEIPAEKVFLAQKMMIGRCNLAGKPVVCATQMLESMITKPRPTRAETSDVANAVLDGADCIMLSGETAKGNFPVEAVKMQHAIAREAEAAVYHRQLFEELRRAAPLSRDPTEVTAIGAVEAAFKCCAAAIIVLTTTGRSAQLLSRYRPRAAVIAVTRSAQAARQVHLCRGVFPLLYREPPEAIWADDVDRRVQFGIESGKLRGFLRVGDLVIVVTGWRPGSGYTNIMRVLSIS
- method: PKR (wild type) enzyme AC50 assay, LDH/NADH-coupled, absorbance at 340 nm
- Type: biochemical
- test parameters: Table 2; enzyme assay; read-out: PKR WT AC50
Let's look at some compounds and their measured AC50.

• Cc1nc2c(s1)c1cnn(Cc3cc[nH]n3)c(=O)c1n2C = < 0.3 µM
• Cc1nc2c(s1)c1cnn(Cc3ccc4cn[nH]c4c3)c(=O)c1n2C = > 0.8 µM
• Cn1c2nc([S+](C)[O-])sc2c2cnn(Cc3cccc4c3CCNC4)c(=O)c21 (centres unmarked) = > 0.8 µM
• Cc1nc2c(s1)c1cnn(Cc3cccc(C(C)N)c3)c(=O)c1n2C (centres unmarked) = < 0.3 µM
• Cc1nc2c(s1)c1cnn(Cc3cccc(NC(N)=O)c3)c(=O)c1n2C = > 0.8 µM
• COc1cccc(Cn2ncc3c4sc(C(F)(F)F)nc4n(C)c3c2=O)c1 = < 0.3 µM
• Cn1c2nc(Cc3cc[nH]n3)sc2c2cnn(Cc3ccc(C#N)cc3)c(=O)c21 = < 0.3 µM
• CNc1cccc(Cn2ncc3c4sc(C)nc4n(C)c3c2=O)c1 = < 0.3 µM

Read the next record carefully.
INPUT: Look up AC50 with wild type PKR (Homo sapiens, UniProt P30613) for this compound: Cn1c2nc(C(N)=O)sc2c2cnn(Cc3cccc4[nH]ncc34)c(=O)c21
OUTPUT: < 0.3 µM
